assay: soluble fraction after stress (log2 fold change); higher = more stays soluble; pooled small domains, quantitative proteomics; details: stress: pH 4
Provide the reported soluble fraction (log2) of each item.

Solved cases below.
Request: Supply reported soluble fraction (log2) belonging to this sequence: "HMKTPRKVFTVLIRNTEYDVYDIDGKEHQGYNDTPKTWWLYHSERLPEGMIPPIDSDSWKPYSVGT"
Response: -2.19

Request: Identify the reported soluble fraction (log2) for the following entry. "HMIHFDHPERSILDTMLYEKKGMTAQSARNRLAAYQFQGEDVFKPVSVLSGGELSRITLAIKNAMADK"
Response: 0.0479

Please turn your attention to the following entry.
Request: Please look at this sequence and report its soluble fraction (log2): "HMKMHKIIKERRLALNFTQEQVAKYLGVTTPAVNKWEKGISYPDISLLPALARLLDTDLNTLLSF"
Response: -1.26

* * *

assay: soluble fraction after stress (log2 fold change); higher = more stays soluble; pooled small domains, quantitative proteomics; settings: stress: pH 4
Threshold rule: soluble fraction (log2) greater than or equal to 0.2 is rule met; below that, rule not met.

Here's what some known entries look like.
Request: Reported soluble fraction (log2) reaches at least 0.2 for "HMKQAVESAEAIFEEIARIKKLSLVKSEAEEIARKTGLQKFTIASQLLKNQHAYEMDESEIASLWDKKI" ?
Response: rule not met

Request: # check: soluble fraction (log2) of "HMSKQIEVPDVTDMTVSDAIDVLQDKGFVVSDEQKEVASSEIEEGRVVRTSPAVGSKRKDGTVVTLYVSI" is greater than or equal to 0.2
Response: rule not met

Request: Does soluble fraction (log2) meet or surpass 0.2 for "HMKFKDYYAALGIDRNADLEQIKKAYRKLARQYHPDVSKAPDAEARFKDAAEAYATLKNPEKRAAYDELGS" ?
Response: rule met

***
Request: Evaluate "HMEFVEERRNRMLDYIGENKRADVPELARHFDVTEVTIRRDLLILEQDGKLIRTHGGAMINR" : soluble fraction (log2) at minimum 0.2?
Response: rule not met

Request: Reported soluble fraction (log2) at or above 0.2? "HMSSAVKRALAELPENWRMIVYYRVVEGLSYAEIAKVLDIPDGSVMSGLHRGKKMLRGLLLEYAQQEGYD"
Response: rule not met

* * *

experiment: soluble fraction after stress (log2 fold change); higher = more stays soluble; pooled small domains, quantitative proteomics; details: stress: pH 4
reported.endpoint: soluble fraction (log2)
Numbers only.

Request: Supply measured soluble fraction (log2) of "HMQDELSSSVIEEAVVVLLLRAANIDGKKDEQEIEAIKRLIIQQFNYDEEKADILITSASEK" in your reply.
Response: -0.191

Request: Answer with the recorded soluble fraction (log2) of "HMNVEKLREMYPEGTKIILQEMQGESRMAKGLKGTVTHVDDAGQIHMKWENGSSLVLNVEVDTFKKIE" only.
Response: -0.562

Request: Answer with reported soluble fraction (log2) of "HMTANTQVENIRLELQRYMDEHGISQVTVARGIGKTHPVISQFLNNKYPGDVEEVARAIESWLTKQHEKAA"
Response: 0.381

Request: Answer with the recorded soluble fraction (log2) of "HMKFTELEQLMLKREINTLADIARVLKTTPQAVSNWKARDQIPYHIVAKINASINKDSNDSSLSI" only.
Response: -0.782

Request: Please give measured soluble fraction (log2) of the following entry: "HMAKPVNISAEPYHYDPTRFRVTFELPRLSDQPRKRIRKVAPAGLDREQALAWAKRLEREVLHELLR"
Response: -0.144

Request: Read the entry "HMDRPARDEAQSWLADVLADGPVPTAEIREEAEAAGLAWRTIQRARIALSVEPIRGDGRNAWLWQLPG" and write its reported soluble fraction (log2).
Response: 0.377

Request: For the sequence "HMADNILPAQTDAIKALATENGFSNESLEKYLIENYGTTIYGLSRNQGIQIINLFQSENPPKP" , give its measured soluble fraction (log2) value.
Response: -0.207

Request: // fetch soluble fraction (log2) given entry "HMVAMYLRVGISNGRRYLSIVQGYRDQVTKKVRHNTVKSLGYLDDLEKHYPDPIAHFKAVVEEMNKKQALE"
Response: 0.191

Request: Give the value of soluble fraction (log2) reported for the following: "HMRYLHTMIRVSDLEESLNFFKLLDIHEVSRKENEQARFTLVFLSATGDEKLVENAKSPLIELTFN"
Response: -0.471

Request: Fill in reported soluble fraction (log2) for this entry: "HMFTYEETIGKSADVYLTIPALKAGKGKIIISVRGSVHELDAMTNNAEKISTGAVVKIVRIEHGNILLVEN"
Response: -0.44

Hi! Can you tell me soluble fraction (log2) for each of these sequences?
1. HMTANPSTEEIMARVEAIPLPIKRLPPGQIVQAQTVAATVLRSNPGLDLAKAWKLAYATVTGQE
2. HMDVSASEVGLTGRQTDVLSLMVKGRSNRDIAELLGLSEGTVKIHITAIFKALGVASRTQALVAAARLGLK
3. HMIHANGLTDRQEMILEFIRSYISENNYPPSVREIGKGVGLASSASVHNNMKKLASLGFLNWDTD

Response:
-0.00256
-0.212
-0.194
